# System: SW-620 colon
# ASSAY_NOTES: NCI tumour cell line growth inhibition, 48 h
What TGI was measured for each of the following?

CC(=O)NNc1nc(C)c(C(/C=C/c2ccc(NC(C)=O)cc2)=N/NS(=O)(=O)c2ccc(C)cc2)s1 = > 100 µM
C[N+](C)(Cc1ccc(NC(=O)CCCC(=O)ON2C(=O)CCC2=O)cc1)c1ccccc1 = > 100 µM

# batch: return TGI for each of the 3 compounds below
1. Cc1cc2c(C(C)C)c(O)c(O)c(C=O)c2c(O)c1-c1c(C)cc2c(C(C)C)c(O)c(O)c(C=O)c2c1O (tested in a mixture with another compound)
2. CC1C(=O)C23OC[C@@]1(C)C1(O)CC[C@@H](C)[C@]21CC3=O (stereo partly drawn)
3. C=C1C(=O)OC2/C=C(\C)CC(O)/C=C(/CO)CC(OC(=O)/C(C)=C/C)C12 (stereo not drawn)

A.
1: 2.33 µM; 2: > 100 µM; 3: 50.3 µM

Batch: TGI for all items listed.
1. Cc1cc2c(cc1C)[n+]([O-])c(-c1c(Cl)cccc1Cl)c(N)[n+]2[O-]
2. COC(=O)/C(=N\O)C(C(=O)C=C(C)C)C(=O)C(=O)Nc1ccccc1C (stereo not drawn)
3. CC(=O)N[C@@H](Cc1ccc(OP(=O)(O)O)cc1)C(=O)N[C@H]1CCC(=O)N2CCC[C@@H](C(=O)NCc3ccc(O)cc3)N2C1=O

A.
["> 100 µM", "> 100 µM", "> 25 µM"]

---

# Tested on: OVCAR-8 ovarian
# ASSAY_NOTES: NCI tumour cell line growth inhibition, 48 h
Provide the recorded GI50 for the entries that follow.

Below: 4 compounds and their reported GI50.
N#CC[C@H](C1CCCC1)n1cc(-c2ncnc3[nH]ccc23)cn1 = 30.3 µM
CC[O-].CC[O-].O=C([CH-]C(=O)c1ccccc1)c1ccccc1.O=C([CH-]C(=O)c1ccccc1)c1ccccc1.[Ti+4] = 79.4 µM
O=C(Nc1ccc(S(=O)(=O)NC2CCCCCC2)cc1)C(c1ccccc1)S(=O)(=O)c1ccc(F)cc1 (stereo not given) = 0.702 µM
C[C@@H](Oc1cc(-c2cnn(C3CC4(CCCNC4)C3)c2)cnc1N)c1c(Cl)ccc(F)c1Cl (stereo not given in full) = 2.06 µM

Next item in the queue.
Lookup result for `COc1ccc(-n2cc(-c3ccc(OC)c(OC)c3)nc2SCc2ccccc2)cc1Cl` ; measured GI50: 25.9 µM

---

# System: DU-145 prostate
# ASSAY_NOTES: NCI tumour cell line growth inhibition, 48 h
ENDPOINT_NAME: TGI (µM)
Numbers only, in µM.

Use these answered entries as a reference point.
O=C(Nc1ccc(S(=O)(=O)NC2CCCCCC2)cc1)C(c1ccccc1)S(=O)(=O)c1ccc(F)cc1 (stereo not given) = 2.68
Cc1cccnc1CNC1CC(NCc2ncccc2C)CC(NCc2ncccc2C)C1 (stereo not given) = 3.58
COP(=O)(C(/C=C/c1ccccc1)OC(C)=O)[C@@H]1CCCC[C@H]1N(CC(C)(C)C)C(C)=O (stereo not given in full) = 32.5
C[n+]1c(-c2ccc(/C=N\NC(=O)c3ccc(C(=O)N/N=C/c4ccc(-c5cn6ccsc6[n+]5C)cc4)cc3)cc2)cn2ccsc21 = 35
CSc1ccc(C2=NN(C(=O)c3ccc(N)cc3)C(c3ccc(F)cc3)C2)cc1 (stereo not given) = 24
COC(=O)c1ccc(NCc2cc(O)ccc2O)cc1O = 25.3

Give one value of TGI per listed compound.
1. CN1CCN(c2ccc3nc4c(nc3c2C(F)(F)F)C(=O)c2ncccc2C4=O)CC1
2. Cc1cc(-c2nc3cc(F)ccc3s2)ccc1NC(=O)C(C)N (stereo not given)
3. O=C(CC1(O)C(=O)Nc2c(Cl)ccc(Cl)c21)c1ccc(C2CC2)cc1 (stereo not given)

A.
[2.6, 8.17, 17.8]

---

Record form. Attribute: GI50. Fill in for each entry.
# Test system: TK-10 renal
# ASSAY_NOTES: NCI tumour cell line growth inhibition, 48 h

ClC1=C(Cl)C(Cl)=C(Cl)C1=Cc1ccc(Cl)cc1 = 0.331 µM
CSc1ccc(C2=NN(C(=O)c3ccc(N)cc3)C(c3ccc(F)cc3)C2)cc1 (stereo not drawn) = 7.5 µM

I have 4 compounds here; please give me GI50 for each one.
1. CC(C)CNc1nc(N=[N+]=[N-])nc(NCC(C)C)n1
2. CCOc1cc(/C=N\NC(=O)N/N=C/c2ccc(O)c(OCC)c2)ccc1O
3. COc1ccc(NC(=O)O[C@H]2[C@H](O[C@H]3[C@@H](O)COC(O[C@H]4C[C@H]5[C@@H]6CC=C7C[C@@H](O)CC[C@]7(C)[C@H]6CC[C@]5(C)[C@H]4[C@H](C)C(=O)CCC(C)C)[C@@H]3OC(C)=O)OC[C@@H](O)[C@@H]2O)cc1 (stereo partly drawn)
4. CCS/C(Nc1ccccc1)=C(\C#N)C(=O)N/N=C/c1ccc(Cl)cc1Cl

A.
1: > 10 µM; 2: > 29.1 µM; 3: 0.0966 µM; 4: 10.2 µM

Dear colleague, could you send me GI50 for each of the items below? Thanks.
1. C=C(C)[C@@H]1CC[C@]2(C)[C@H](C=CC3=C4C[C@@](C)(CO)CC[C@]4(C)CC[C@]32C)[C@@]1(C)CCCN
2. Cc1c(N2C(=O)/C(=C\c3ccc(N(C)C)cc3)N=C2c2ccccc2)c(=O)n(-c2ccccc2)n1C

A.
1. 1.78 µM
2. > 100 µM

---

# System: SK-OV-3 ovarian
# ASSAY_NOTES: NCI tumour cell line growth inhibition, 48 h
ENDPOINT_NAME: TGI (µM)
One number for each entry, in µM.

The examples below pair each entry with its known result.
C=C1C(=O)OC2/C=C(\C)CC(O)/C=C(/CO)CC(OC(=O)/C(C)=C/C)C12 (stereo not drawn) = 309
OC(c1ccccc1)c1c(-c2ccccc2)oc(-c2ccccc2)c1C(O)c1ccccc1 (stereo not drawn) = 30.1
c1ccc2c3nnc(c2c1)SCCSCCCSCCS3 = 97.5

Entry under test: `C=C1CO[C@@H]2C[C@@H]1CC/C(C)=C/CC/C(C)=C/CC[C@@]2(C)O` . Its TGI was 56.6

---

# Tested on: NCI-H226 lung
# ASSAY_NOTES: NCI tumour cell line growth inhibition, 48 h; in the data active means GI50 below about 0.43 µM; inactive means the rest
Select the correct class. Options are TRUE = active, FALSE = inactive and nothing else.

Consider the worked cases shown below.
Cc1sc(/N=C2/NC(=O)CS2)nc1-c1nc(/N=C2/NC(=O)CS2)sc1C = FALSE
ClC1=C(Cl)C(Cl)=C(Cl)C1=Cc1ccc(Cl)cc1 = TRUE
COc1ccc(NC(=O)O[C@H]2[C@H](O[C@H]3[C@@H](O)COC(O[C@H]4C[C@H]5[C@@H]6CC=C7C[C@@H](O)CC[C@]7(C)[C@H]6CC[C@]5(C)[C@H]4[C@H](C)C(=O)CCC(C)C)[C@@H]3OC(C)=O)OC[C@@H](O)[C@@H]2O)cc1 (some centres undefined) = TRUE
COc1ccc(C2C3=C(COC3=O)N(CCO)c3cc4c(cc32)OCCO4)cc1OC (centres undefined) = FALSE
Brc1ccc(Br)nn1 = FALSE
CC(=O)/C=C/C1=C(c2ccsc2)c2ccccc2CC1 = FALSE

Q. Check the results log: what was the call for COc1ccc(-n2sc(=O)n(Cc3ccc(COC(=O)C(C)c4ccc(CC(C)C)cc4)cc3)c2=O)cc1 (centres undefined) ?
A. FALSE

Q. Recorded test outcome, item `O=[N+]([O-])c1ccc(-c2ccccc2)c([As](=O)(O)O)c1`
A. FALSE

Q. Please let me know the test result on file for `CON` .
A. FALSE

---

# Test system: U251 CNS
Give one outcome, nothing more. List: true (1) for active, false (0) for inactive

Cc1cccnc1CNC1CC(NCc2ncccc2C)CC(NCc2ncccc2C)C1 (configuration not stated) = false (0)

Q. In this assay, the call recorded for CC(C)N(C[C@H]1O[C@@H](n2cnc3c(N)ncnc32)[C@H](O)[C@@H]1O)C1CC(CCc2nc3ccc(C(C)(C)C)cc3[nH]2)C1 (some centres not stated) was what?
A. false (0)

Q. Returns: the outcome recorded for `Brc1ccc(Br)nn1` in this assay.
A. false (0)

Q. Look up the recorded call for `CN(NC(=O)CC(=O)NN(C)C(=S)c1ccc(Cl)cc1)C(=S)c1ccc(Cl)cc1` in this test.
A. false (0)

Q. Just curious, what result did `Cc1cc2nc3c4ccccc4n(CCN(C)C)c3nc2cc1C` get here?
A. false (0)

Q. Entry `ClC1=C(Cl)C(Cl)=C(Cl)C1=Cc1ccc(Cl)cc1` : call = ?
A. true (1)

Q. Hey, what did the test say about `CCc1ccccc1-n1c(N)c(C#N)c(-c2ccc(OC)c(OC)c2)c(C#N)c1=O` ?
A. false (0)

Q. Check the results log: what was the call for `CN1CCN(c2ccc3nc4c(nc3c2C(F)(F)F)C(=O)c2ncccc2C4=O)CC1` ?
A. false (0)

Q. Hi team, can someone confirm the assay call for `COc1cc(/C=C/C(=O)c2ccc(Nc3nc(Nc4ccccc4)nc(Nc4ccc(Cl)cc4)n3)cc2)cc(OC)c1OC` ?
A. false (0)

Q. In this assay, the call recorded for COc1ccc(-n2sc(=O)n(Cc3ccc(COC(=O)C(C)c4ccc(CC(C)C)cc4)cc3)c2=O)cc1 (configuration not stated) was what?
A. false (0)

Q. Record request — test call for CC(=O)OCC(=O)C1(O)C(C)CC2C3C=C(C)C4=Cc5c(cnn5-c5ccccc5)CC4(C)C3C(O)CC21C (configuration not stated)
A. false (0)

Q. State the result this test recorded for `CS[C@@]1(C(=O)Nc2ccc3[nH]nc(-c4ccc(OC(C)C)nc4)c3c2)CCN(CC(=O)N2CC=C(c3ccc(-c4ncn(C)n4)cc3)CC2)C1` .
A. false (0)

Q. # fetch the recorded call for `N#CC[C@H](C1CCCC1)n1cc(-c2ncnc3[nH]ccc23)cn1` here
A. false (0)

Q. Identify the outcome logged in this assay for the molecule shown: COc1cc(C2C(C#N)=C(N)Oc3cc4c(cc32)OCO4)cc2c1OCO2 (configuration not stated)
A. true (1)

Q. Test call for this molecule, please: Cc1cc2c(C(C)C)c(O)c(O)c(C=O)c2c(O)c1-c1c(C)cc2c(C(C)C)c(O)c(O)c(C=O)c2c1O (tested in a mixture with another compound)
A. false (0)

Q. Test call, this molecule: `Cc1sc(/N=C2/NC(=O)CS2)nc1-c1nc(/N=C2/NC(=O)CS2)sc1C`
A. false (0)

Q. For `O=C(NO)c1cnc(N2CCN(S(=O)(=O)c3ccc4ccccc4c3)CC2)nc1` , which call appears in the assay record?
A. true (1)

Q. // return assay outcome for CSc1ccc(C2=NN(C(=O)c3ccc(N)cc3)C(c3ccc(F)cc3)C2)cc1 (configuration not stated)
A. false (0)

Q. Write down the call the test reported for this molecule. Item: COc1ccc(C2C3=C(COC3=O)N(CCO)c3cc4c(cc32)OCCO4)cc1OC (configuration not stated)
A. false (0)

Q. Dear all, I need the recorded test outcome for `CC[C@H](C)[C@H](NC(=O)C12CC(NC(C)=O)(C1)C2)C(=O)N(C)[C@H](C[C@@H](OC(C)=O)c1nc(C(=O)N[C@@H](Cc2ccccc2)C[C@H](C)C(=O)OC)cs1)C(C)C` , thank you.
A. false (0)

Q. For O=C(CC1(O)C(=O)Nc2c(Cl)ccc(Cl)c21)c1ccc(C2CC2)cc1 (configuration not stated) , which call appears in the assay record?
A. false (0)

Q. I would be grateful if you could indicate the recorded call for CC1(C)CC2CC(C)(CN2c2ncnc3ccc(Br)cc23)C1 (configuration not stated) .
A. false (0)
